So I've got a bunch of compounds here, and I need their cell viability values.
# Test system: U2OS
# measurement notes: cell viability relative to DMSO; higher = less toxic
# experimental setup: 72 h; 10 nM
Lab note: write values as number then unit, every time.

Recorded cell viability, per entry:
> print(dat)
                                   compound  measured.endpoint  value.reported
1     O=C(c1cc2ccccc2o1)N1CCN(Cc2ccccc2)CC1     cell viability           97.6%
2  CC(C)[C@H]1c2ccc(F)cc2CC[C@@]1(CCN(C)CCCc1nc2ccccc2[nH]1)OC(=O)C1CC1     cell viability           99.1%
3  COc1cc2nc(N3CCN(C(=O)C4CCCO4)CC3)nc(N)c2cc1OC (centres undefined)     cell viability            102%

Each of the following entries comes with a recorded value; kindly state cell viability for each.
1. c1ccc(C2CC2)c(OCC2=NCCN2)c1
2. NCC(CC(=O)O)c1ccccc1 (centres undefined)
3. CCOc1cc(OCC)c(C(=O)CCC(=O)O)cc1OCC [trepibutone]
4. C[C@]12N[C@H](Cc3ccccc31)c1ccccc12 [dizocilpine-(-)]

**A:**
1. 95.7%
2. 91.1%
3. 94.3%
4. 104%

Each of the following entries comes with a recorded value; kindly state cell viability for each.
1. CCOc1ccn(-c2ccc(F)cc2)c(=O)c1C(=O)Nc1ccc(Oc2ccnc(N)c2Cl)c(F)c1
2. C=CC(=O)Nc1ccc2ncnc(Nc3ccc(OCc4cccc(F)c4)c(Cl)c3)c2c1

**A:**
1. 98.4%
2. 72.7%

---

So I've got a bunch of compounds here, and I need their cell viability values.
# System: Caco-2
# measurement notes: cell viability relative to DMSO; higher = less toxic
# experimental setup: 72 h; 10 nM
Give bare numbers, in %.

> print(dat)
                                   compound  measured.endpoint  value.reported
1         COc1ccc2[nH]c(C(=O)c3ccccc3)cc2c1     cell viability             108
2  Nc1ncnc2c1c(-c1cccc(OCc3ccccc3)c1)cn2[C@H]1C[C@@H](CN2CCC2)C1     cell viability              97

Each of the following entries comes with a recorded value; kindly state cell viability for each.
1. CCOC(=O)c1ccc(N(C)c2csc(-c3ccccc3)n2)cc1
2. Clc1ccccc1C(c1ccccc1)(c1ccccc1)n1ccnc1
3. Cc1ccccc1OCC(O)CO (stereo not given)
4. C[C@@H](CN(C)C)CN1c2ccccc2Sc2ccccc21 (racemic)
5. Cc1nc(N)sc1CCN
6. Cc1ccc(OCCSc2ncccn2)c(Br)c1
7. C[C@H](N[C@@H](CCc1ccccc1)C(=O)O)C(=O)N1CCC[C@H]1C(=O)O
8. Cc1ccc(NC(=O)Nc2cc(C(F)(F)F)ccc2F)cc1Nc1ccc2c(c1)NC(=O)/C2=C\c1ccc[nH]1

**A:**
1: 94.1; 2: 97.1; 3: 96.5; 4: 100; 5: 95.3; 6: 104; 7: 104; 8: 97.6

---

# System: Vero E6
# measurement notes: cell viability relative to DMSO; higher = less toxic
# experimental setup: 72 h; 1 nM
measured endpoint: cell viability (%)
Answers are plain numbers, in %.

Recorded cell viability, per entry:
compound	cell viability [%]
CCOC(=O)C1=C(COCCN)NC(C)=C(C(=O)OC)C1c1ccccc1Cl (stereo not given)	96.7
CC(C)(C)NCC(O)c1ccccc1Cl (stereo not given)	96.9
CC[C@@H](Nc1c(Nc2cccc(C(=O)N(C)C)c2O)c(=O)c1=O)c1ccc(C)o1	94.9

Each of the following entries comes with a recorded value; kindly state cell viability for each.
1. NCC(CC(=O)O)c1ccccc1 (stereo not given)
2. CN(C)CCN1C(=O)c2cccc3cc(N)cc(c23)C1=O [amonafide]
3. C=C1C(=O)O[C@@H]2[C@H]3C(C)=CC[C@@]34O[C@@]4(C)CC[C@@H]12
4. Cc1ccccc1/N=N/c1ccc(/N=N/c2c(O)ccc3ccccc23)c(C)c1
5. CCOC(=O)[C@@H](N)Cc1ccc(-c2cc(O[C@H](c3ccc(Cl)cc3-n3ccc(C)n3)C(F)(F)F)nc(N)n2)cc1

**A:**
1. 100
2. 97.8
3. 110
4. 104
5. 96.6
